Give MC3R selectivity (relative to MC4R) for every item shown.
TARGET OF ASSAY: human MC3R (human, UniProt P41968 1-323)
Sequence (P41968 whole entry): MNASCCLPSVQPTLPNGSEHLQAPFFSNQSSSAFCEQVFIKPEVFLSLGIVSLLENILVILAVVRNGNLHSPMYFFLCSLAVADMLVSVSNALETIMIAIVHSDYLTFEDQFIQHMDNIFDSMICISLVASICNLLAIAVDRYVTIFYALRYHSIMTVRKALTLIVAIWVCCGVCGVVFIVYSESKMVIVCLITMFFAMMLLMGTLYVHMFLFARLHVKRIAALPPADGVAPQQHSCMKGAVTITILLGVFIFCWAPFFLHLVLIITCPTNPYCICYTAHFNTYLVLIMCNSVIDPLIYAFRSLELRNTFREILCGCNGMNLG
EXPERIMENT SUMMARY: cell-based or functional assay
Non-standard residues stand in square brackets, D forms with d. Phe(4-I) = N[C@@H](Cc1ccc(I)cc1)C(=O)O; dTic = O=C(O)[C@H]1Cc2ccccc2CN1; Nle = CCCC[C@H](N)C(=O)O

Please review the following examples before continuing.
{"BINDER": "Ac-[Nle][dA]H[Phe(4-I)]R[dTic]DRFG-OH [CTX-1504]", "MC3R selectivity (relative to MC4R)": 1}
{"BINDER": "YVXAHFRWDRFG (Nle at 3; D-Ala at 4; D-Trp at 8) [CTX-1103]", "MC3R selectivity (relative to MC4R)": 229}
{"BINDER": "YVXXHFRWDRFG (Nle at 3; D-Abu at 4; D-Trp at 8) [CTX-1135]", "MC3R selectivity (relative to MC4R)": 667}

I'm hoping you can list MC3R selectivity (relative to MC4R) for every binder here, please.
1. YVXXHFRWDRFG (Nle at 3; Aib at 4; D-Trp at 8) [CTX-1134]
2. H-[dY]V[Nle][dA]H[Phe(4-I)]R[dW]D-NH2 (SMILES CCCC[C@H](NC(=O)[C@@H](NC(=O)[C@H](N)Cc1ccc(O)cc1)C(C)C)C(=O)N[C@H](C)C(=O)N[C@@H](Cc1c[nH]cn1)C(=O)N[C@@H](Cc1ccc(I)cc1)C(=O)N[C@@H](CCCNC(=N)N)C(=O)N[C@H](Cc1c[nH]c2ccccc12)C(=O)N[C@@H](CC(=O)O)C(N)=O) [CTX-1171]

Reply:
1. 566
2. 234
